- tested system: EBP-Ig (N-terminal 225 amino acids of the human EPO receptor joined to an Ig heavy chain) (Homo sapiens, UniProt P19235)
- Construct: Ig heavy chain (fusion partner); made in house; host or cells: NSO cells (secreted into conditioned media)
- experiment notes: Inhibition of [125I]EPO binding to immobilized EBP-Ig (EPO binding protein-Ig), scintillation Flash plate competition assay
- recorded conditions: 0.5 nM [125I]EPO; 0–500 μM test compound
result type: IC30 μM (Inhibition of EPO binding to EBP-Ig) (µM)

{"compound": "NCCCCC(C(=O)NCc1ccccc1)N(CC=Cc1ccccc1)CC=Cc1ccccc1 (stereo not shown)", "readout number": 20}
{"compound": "O=C(O)CCC(C(=O)O)N(C/C=C/c1cccc(Oc2cccc(C(F)(F)F)c2)c1)C/C=C/c1cccc(Oc2cccc(C(F)(F)F)c2)c1 (stereo not shown)", "readout number": 25}
{"compound": "COC(=O)C(CCCCN)N(C/C=C/c1cccc(Oc2ccc(C(C)(C)C)cc2)c1)Cc1cccc(OCc2ccccc2)c1 (stereo not shown)", "readout number": 2}
{"compound": "CC(=O)O.COC(=O)CC(NCC=Cc1cccc(C(=O)OC)c1)C(=O)OC (stereo not shown)", "readout number": 65}
{"compound": "NCCCCC(C(=O)O)N(Cc1cccc(Oc2ccccc2)c1)C(=O)C=Cc1cccc(OCc2ccccc2)c1 (stereo not shown)", "readout number": 35}
{"compound": "COC(=O)c1cccc(C=CCNC(Cc2ccc(OC)cc2)C(=O)OC)c1 (stereo not shown)", "readout number": 35}
{"compound": "COc1ccccc1CCNC(=O)C(CCCCN)N(CC=Cc1ccccc1)CC=Cc1ccccc1 (stereo not shown)", "readout number": 25}

###

- tested system: EBP-Ig (N-terminal 225 amino acids of the human EPO receptor joined to an Ig heavy chain) (Homo sapiens)
- Construct: Ig heavy chain (fusion partner); made in house; host or cells: NSO cells (secreted into conditioned media)
- experiment notes: Inhibition of [125I]EPO binding to immobilized EBP-Ig (EPO binding protein-Ig), scintillation Flash plate competition assay
- recorded conditions: Table 3; 50 μM

{"compound": "O=C(NCCCCC(C(=O)OCc1ccccc1)N(CC=Cc1cccs1)CC=Cc1cccs1)OCc1ccccc1 (stereo not shown) [compound 57]", "EPO/EBP-Ig % inh @ 50 μM": "0%"}
{"compound": "CCOC(=O)CCC(C(=O)OC)N(C/C=C/c1cccs1)C/C=C/c1cccs1 (stereo not shown) [compound 60]", "EPO/EBP-Ig % inh @ 50 μM": "9%"}
{"compound": "O=C(O)CCC(C(=O)O)N(CC=Cc1cccs1)CC=Cc1cccs1 (stereo not shown) [compound 52]", "EPO/EBP-Ig % inh @ 50 μM": "21%"}
{"compound": "COC(=O)C(CCC(=O)OC(C)(C)C)N(CC=Cc1cccs1)CC=Cc1cccs1 (stereo not shown) [compound 59]", "EPO/EBP-Ig % inh @ 50 μM": "26%"}
{"compound": "COC(=O)C(CCC(=O)O)N(C/C=C/c1cccs1)C/C=C/c1cccs1 (stereo not shown) [compound 61]", "EPO/EBP-Ig % inh @ 50 μM": "14%"}
{"compound": "O=C(O)CC(C(=O)O)N(CC=Cc1cccs1)CC=Cc1cccs1 (stereo not shown) [compound 53]", "EPO/EBP-Ig % inh @ 50 μM": "14%"}
{"compound": "NCCCCC(C(=O)O)N(CC=Cc1cccs1)CC=Cc1cccs1 (stereo not shown) [cpd 50]", "EPO/EBP-Ig % inh @ 50 μM": "−6%"}
{"compound": "N=C(N)NCCCC(C(=O)O)N(CC=Cc1cccs1)CC=Cc1cccs1 (stereo not shown) [compound 49]", "EPO/EBP-Ig % inh @ 50 μM": "1%"}
{"compound": "CC(C(=O)O)N(CC=Cc1cccs1)CC=Cc1cccs1 (stereo not shown) [compound 54]", "EPO/EBP-Ig % inh @ 50 μM": "18%"}
{"compound": "NC(=O)CCC(C(=O)O)N(CC=Cc1cccs1)CC=Cc1cccs1 (stereo not shown) [compound 55]", "EPO/EBP-Ig % inh @ 50 μM": "4%"}

###

- tested system: EBP-Ig (N-terminal 225 amino acids of the human EPO receptor joined to an Ig heavy chain) (Homo sapiens, UniProt P19235)
- Construct: Ig heavy chain (fusion partner); made in house; host or cells: NSO cells (secreted into conditioned media)
- experiment notes: Inhibition of [125I]EPO binding to immobilized EBP-Ig (EPO binding protein-Ig), scintillation Flash plate competition assay
- recorded conditions: 50 μM compound; Table 13

{"molecule": "O=C(O)CCC(=O)NCCCCC(C(=O)NCCCOCCOCCOCCCNC(=O)C(CCCCNC(=O)CCC(=O)O)N(Cc1ccc(OCc2ccccc2)cc1)Cc1ccc(OCc2ccccc2)cc1)N(Cc1ccc(OCc2ccccc2)cc1)Cc1ccc(OCc2ccccc2)cc1 (centres unmarked) [compound 271]", "unit symbol": "%", "EPO/EBP-Ig % inh @ 50 μM": 77}
{"molecule": "O=C(O)CCCC(=O)NCCCCC(C(=O)NCCOCCOCCNC(=O)C(CCCCNC(=O)CCCC(=O)O)N(Cc1ccc(OCc2ccccc2)cc1)Cc1ccc(OCc2ccccc2)cc1)N(Cc1ccc(OCc2ccccc2)cc1)Cc1ccc(OCc2ccccc2)cc1 (centres unmarked) [compound 263]", "unit symbol": "%", "EPO/EBP-Ig % inh @ 50 μM": 88}
{"molecule": "CC(C)(CC(=O)O)CC(=O)NCCCCC(C(=O)NCCCCCCCCCCCCNC(=O)C(CCCCNC(=O)CC(C)(C)CC(=O)O)N(Cc1ccc(OCc2ccccc2)cc1)Cc1ccc(OCc2ccccc2)cc1)N(Cc1ccc(OCc2ccccc2)cc1)Cc1ccc(OCc2ccccc2)cc1 (centres unmarked) [compound 268]", "unit symbol": "%", "EPO/EBP-Ig % inh @ 50 μM": 40}
{"molecule": "O=C(O)CCC(=O)NCCCCC(C(=O)NCCCCCCCCCCCCNC(=O)C(CCCCNC(=O)CCC(=O)O)N(Cc1ccc(OCc2ccccc2)cc1)Cc1ccc(OCc2ccccc2)cc1)N(Cc1ccc(OCc2ccccc2)cc1)Cc1ccc(OCc2ccccc2)cc1 (centres unmarked) [compound 270]", "unit symbol": "%", "EPO/EBP-Ig % inh @ 50 μM": 56}
{"molecule": "O=C(O)CCCC(=O)NCCCCC(C(=O)NCCCOCCCCOCCCNC(=O)C(CCCCNC(=O)CCCC(=O)O)N(Cc1ccc(OCc2ccccc2)cc1)Cc1ccc(OCc2ccccc2)cc1)N(Cc1ccc(OCc2ccccc2)cc1)Cc1ccc(OCc2ccccc2)cc1 (centres unmarked) [compound 266]", "unit symbol": "%", "EPO/EBP-Ig % inh @ 50 μM": 82}

###

This section presents compounds with their documented EPO/EBP-Ig % inh @ 50 μM values.
- tested system: EBP-Ig (N-terminal 225 amino acids of the human EPO receptor joined to an Ig heavy chain) (Homo sapiens, UniProt P19235)
- Construct: Ig heavy chain (fusion partner); made in house; host or cells: NSO cells (secreted into conditioned media)
- Sequence (P19235 25-250 limits assumed): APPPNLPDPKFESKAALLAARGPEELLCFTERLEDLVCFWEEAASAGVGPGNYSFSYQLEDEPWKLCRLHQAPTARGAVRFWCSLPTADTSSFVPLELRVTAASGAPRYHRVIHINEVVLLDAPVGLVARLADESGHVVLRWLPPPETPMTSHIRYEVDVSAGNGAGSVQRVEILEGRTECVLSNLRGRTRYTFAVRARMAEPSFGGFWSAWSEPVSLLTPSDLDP
- experiment notes: Inhibition of [125I]EPO binding to immobilized EBP-Ig (EPO binding protein-Ig), scintillation Flash plate competition assay
- recorded conditions: 50 μM compound; Table 9
result type: EPO/EBP-Ig % inh @ 50 μM (%)

{"compound": "COC(=O)C(CCCCNC(=O)OCc1ccccc1)N(C/C=C/c1ccc2ccccc2c1)C/C=C/c1ccc2ccccc2c1 (stereo not shown) [compound 175]", "readout number": 1}
{"compound": "COC(=O)C(CCCCNC(=O)OCc1ccccc1)N(C/C=C/c1ccc(OC)cc1)C/C=C/c1ccc(OC)cc1 (stereo not shown) [compound 174]", "readout number": 23}
{"compound": "CC(C)(C)OC(=O)NCCCCC(C(=O)O)N(C/C=C/c1ccc([N+](=O)[O-])cc1)C/C=C/c1ccc([N+](=O)[O-])cc1 (stereo not shown) [compound 179]", "readout number": 30}
{"compound": "COC(=O)C(CCCCNC(=O)OC(C)(C)C)N(C/C=C/c1cccc([N+](=O)[O-])c1)C/C=C/c1cccc([N+](=O)[O-])c1 (stereo not shown) [compound 183]", "readout number": 36}
{"compound": "CC(C)(C)OC(=O)C(CCCCNC(=O)OCc1ccccc1)N(C/C=C/c1ccccc1)C/C=C/c1ccccc1 (stereo not shown) [compound 173]", "readout number": 5}
{"compound": "O=C(NCCCCC(C(=O)O)N(C/C=C/c1ccccc1)C/C=C/c1ccccc1)OCc1ccccc1 (stereo not shown) [compound 172]", "readout number": 15}
{"compound": "COC(=O)C(CCCCN)N(C/C=C/c1cccc([N+](=O)[O-])c1)C/C=C/c1cccc([N+](=O)[O-])c1 (stereo not shown) [compound 184]", "readout number": 53}

The origin of these recorded values is patent US7153869B2.
